# method.description: compound binding in COS7 lysate, probe aLAP1, primary screen, cell lysate, small-molecule microarray (AID 1124);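 note: lysate comes from COS7 cells expressing LAP1 and is applied at 0.3 µg/mL; score merges spot fluorescence near 667 nm with signal-to-noise over triplicate slides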
# test.context: probe aLAP1, fluorescence, higher = more signal
Recorded composite z-score for the following molecules

[
  {
    "input.smiles": "C=CCNC(=O)[C@H]1[C@@H]2C(=O)O[C@@H](c3ccccc3)[C@@H](c3ccccc3)N2[C@@H](c2ccc(OCCO)cc2)[C@]12C(=O)Nc1ccc(C#CCCO)cc12",
    "composite z-score": 0.725
  },
  {
    "input.smiles": "COCCOC(=O)N1C(=O)[C@@]2(c3ccccc31)[C@H](C(=O)Nc1nc3ccccc3s1)[C@H]1C(=O)O[C@H](c3ccccc3)[C@H](c3ccccc3)N1[C@@H]2c1ccc(O)cc1",
    "composite z-score": 0.418
  },
  {
    "input.smiles": "C=C(C1=CCN(S(=O)(=O)c2ccc(C)cc2)C1)[C@@H](OC(C)=O)[C@@H]1CCCN1S(=O)(=O)c1ccccc1[N+](=O)[O-]",
    "composite z-score": -0.273
  },
  {
    "input.smiles": "COCCCNC(=O)[C@@]1(C)c2ccccc2C(=O)N(Cc2cc(F)cc(C(F)(F)F)c2)[C@H]1c1ccc(CO)cc1",
    "composite z-score": 0.346
  },
  {
    "input.smiles": "Cc1ccc(S[C@]2(C(=O)NC3CC3)CC(=O)N(Cc3ccccc3C(F)(F)F)[C@@H]2c2ccc(CO)cc2I)cc1",
    "composite z-score": 0.417
  },
  {
    "input.smiles": "C=C(/C(=C/C[C@H](OC(C)=O)c1cccc(OCCO)c1)c1cc(C(=O)OC)ccc1OC)C(C)C",
    "composite z-score": 0.172
  },
  {
    "input.smiles": "COC(=O)c1c(CC[C@@H](CO)NC(=O)Nc2ccc(OC)cc2)oc(C(=O)Cc2ccccc2)c1C(=O)OC",
    "composite z-score": 0.21
  }
]

---

z-score listing for selected molecules.
# method.description: basal MM1S mitochondrial membrane potential changes, profiling panel, cell-based, JC-1 fluorescence, 24 h, 100 nL compound (AID 1170); note: test concentration not given here
# test.context: higher = more signal

[
  {
    "input.smiles": "C=CCNC(=O)[C@@H]1[C@H]2C(=O)O[C@H](c3ccccc3)[C@H](c3ccccc3)N2[C@H](c2ccc(O)cc2)[C@@]12C(=O)N(C(=O)OCCOC)c1ccc(C#Cc3ccc(OC)cc3)cc12",
    "z-score": 0.0591
  },
  {
    "input.smiles": "O=C1N(CCS(=O)(=O)c2ccccc2)Cc2ccccc2[C@@H]2OC(c3ccc(OCCCO)cc3)=N[C@]12Cc1ccccc1",
    "z-score": -0.693
  },
  {
    "input.smiles": "COCCCN1C(=O)[C@@]2(Cc3ccccc31)c1ccccc1C(=O)N(Cc1ccccc1Cl)[C@H]2c1ccc(CO)cc1",
    "z-score": 0.828
  },
  {
    "input.smiles": "COCCOC(=O)N1C(=O)[C@@]2(c3cc(C#CC4(O)CCCCCC4)ccc31)[C@H](C(=O)NC[C@H](O)c1ccccc1)[C@H]1C(=O)O[C@H](c3ccccc3)[C@H](c3ccccc3)N1[C@@H]2c1ccccc1OCCO",
    "z-score": -1.75
  },
  {
    "input.smiles": "C=CCN1C(=O)[C@@]2(O[C@@H](CCO)[C@H]([Si](C)(C)c3ccc(OC)cc3)[C@H]2C)c2cc(N3C(=O)c4cccc5cccc3c45)ccc21",
    "z-score": -2.09
  },
  {
    "input.smiles": "C=C(COC)/C(=C/C[C@H](OC(C)=O)c1ccc(CO)o1)c1cnc2ccccc2c1",
    "z-score": -0.271
  }
]

---

# tested.target: NADPH oxidase 2 (Homo sapiens) (UniProt P04839)
# Sequence (P04839 whole entry, looked up): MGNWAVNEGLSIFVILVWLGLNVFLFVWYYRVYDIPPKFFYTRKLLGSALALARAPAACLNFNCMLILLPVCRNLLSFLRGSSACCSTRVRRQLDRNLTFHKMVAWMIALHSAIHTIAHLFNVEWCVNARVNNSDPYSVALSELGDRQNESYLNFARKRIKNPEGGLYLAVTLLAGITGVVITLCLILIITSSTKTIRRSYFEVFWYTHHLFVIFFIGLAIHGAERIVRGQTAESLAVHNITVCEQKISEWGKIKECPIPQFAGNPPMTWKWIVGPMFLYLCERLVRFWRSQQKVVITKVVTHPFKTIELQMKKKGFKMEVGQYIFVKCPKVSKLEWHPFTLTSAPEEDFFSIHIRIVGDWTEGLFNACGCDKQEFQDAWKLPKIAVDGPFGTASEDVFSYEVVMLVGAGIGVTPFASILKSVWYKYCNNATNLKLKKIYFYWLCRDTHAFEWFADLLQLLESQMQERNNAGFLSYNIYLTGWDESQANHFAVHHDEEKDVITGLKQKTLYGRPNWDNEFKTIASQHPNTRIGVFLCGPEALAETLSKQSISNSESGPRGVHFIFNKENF
# method.description: NOX2-dependent H2O2 signal modulators, primary screen, NOX inhibitor project, cell-based, HEK293-NOX2, PMA-stimulated, Amplex Red fluorescence (AID 1159); note: test concentration not given here
# test.context: 45 min, higher = more signal, called active from +8 up or from −8 down
// z-score lookup, one value per entry

[
  {
    "input.smiles": "C=CCNC(=O)[C@H]1[C@@H]2C(=O)O[C@@H](c3ccccc3)[C@@H](c3ccccc3)N2[C@@H](c2ccccc2OCCO)[C@]12C(=O)N(C(=O)OCCOC)c1ccc(C#CCCO)cc12",
    "z-score": 1.74
  },
  {
    "input.smiles": "[N-]=[N+]=Nc1ccccc1[C@H]1OC(c2ccc(OCCCO)cc2)=N[C@@]1(Cc1ccccc1)C(N)=O",
    "z-score": -1.71
  },
  {
    "input.smiles": "C=C(/C(=C/C[C@H](OC(=O)c1ccncc1)c1cccc(OCCO)c1)c1cc(C(=O)OC)ccc1OC)C(C)C",
    "z-score": 1.62
  },
  {
    "input.smiles": "COCCOC(=O)N1C(=O)[C@@]2(c3cc(C#CCNC(N)=O)ccc31)[C@H](c1ccccc1OCCO)N1[C@H](c3ccccc3)[C@H](c3ccccc3)OC(=O)[C@H]1[C@@H]2C(=O)Nc1nc2ccccc2s1",
    "z-score": 1.85
  },
  {
    "input.smiles": "C=C(COC)C(=O)CC[C@@H](OC(=O)c1ccccc1-c1ccccc1C(=O)O)c1cccc(OCCO)c1",
    "z-score": 3.24
  },
  {
    "input.smiles": "CO[C@H]1O[C@H](CO)[C@@H](OC(=O)Nc2ccccc2)[C@H](OC(=O)Nc2ccc3c(c2)OCO3)[C@H]1OC(=O)Nc1ccc2c(c1)OCO2",
    "z-score": -3.84
  }
]

---

# method.description: small-molecule microarray binders of probe aXIP, primary screen, biochemical, NeuroSMM set, 635/667 nm fluorescence (AID 1119);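 note: probe is the protein aXip251-270 applied at 1 µg/mL to compound-printed slides; binding of probe to printed compounds measured as 667 nm fluorescence plus signal to noise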
# test.context: higher = more signal, called active from +8 up or from −8 down
Form field: composite Z-score (one value per entry).

[
  {
    "input.smiles": "CO[C@H]1O[C@H](CO)[C@@H](OC(=O)Nc2ccccc2)[C@H](OC(=O)Nc2ccccc2-c2ccccc2)[C@H]1OC(=O)Nc1ccccc1-c1ccccc1",
    "composite Z-score": 0.563
  },
  {
    "input.smiles": "COc1ccc([Si](C)(C)[C@H]2[C@H](CC(=O)N(CCO)Cc3ccccc3)O[C@@]3(C(=O)N(Cc4ccc(N5CCC5=O)cc4)c4ccccc43)[C@@H]2C)cc1",
    "composite Z-score": 0.506
  },
  {
    "input.smiles": "[N-]=[N+]=NCc1ccccc1C[C@@]1(C(=O)O)N=C(c2ccc(OCCCO)cc2)O[C@@H]1c1ccccc1",
    "composite Z-score": 0.114
  }
]

---

Each entry below carries its reported composite z-score.
# Test system: Plasmodium falciparum Sir2 (PF13_0152, Sir2A)
# method.description: pfSir2 binders on small-molecule microarrays, primary screen, biochemical, small-molecule microarray, 635 nm fluorescence (AID 1098);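 note: score merges spot fluorescence intensity with its signal-to-noise ratio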
# test.context: small-molecule microarray binding, fluorescence 635 nm; higher = more signal
measurement.name: composite z-score

[
  {
    "compound": "COCCOC(=O)N1C(=O)[C@@]2(c3ccccc31)[C@H](C(=O)Nc1nc3ccccc3s1)[C@H]1C(=O)O[C@H](c3ccccc3)[C@H](c3ccccc3)N1[C@@H]2c1ccc(O)cc1",
    "measurement.name": "composite z-score",
    "endpoint.value": 1.05
  },
  {
    "compound": "CC(C)CNC(=O)[C@@H]1c2ccccc2C(=O)N(Cc2ccc(OC(F)(F)F)cc2)[C@H]1c1ccc(CO)cc1",
    "measurement.name": "composite z-score",
    "endpoint.value": 1.46
  },
  {
    "compound": "O=C(NCc1ccccc1)[C@@H]1c2ccccc2C(=O)N(Cc2ccccc2Cl)[C@H]1c1ccc(CO)cc1",
    "measurement.name": "composite z-score",
    "endpoint.value": 0.447
  },
  {
    "compound": "COc1ccc(C(=O)Nc2cccc(CN3C(=O)[C@@]4(O[C@@H](CCO)[C@H]([Si](C)(C)c5ccc(OC)cc5)[C@H]4C)c4ccccc43)c2)cc1",
    "measurement.name": "composite z-score",
    "endpoint.value": 0.775
  },
  {
    "compound": "CO[C@H]1O[C@H](CO)[C@@H](OC(=O)Nc2ccccc2)[C@H](OC(=O)Nc2ccccc2-c2ccccc2)[C@@H]1OC(=O)Nc1ccccc1-c1ccccc1",
    "measurement.name": "composite z-score",
    "endpoint.value": 1.36
  },
  {
    "compound": "CC(C)N1CC=CC23O[C@@H]4/C=C\\CCCOC(=O)C4[C@H]2C(=O)N(CCCO)[C@@H]3C1=O (some centres not stated)",
    "measurement.name": "composite z-score",
    "endpoint.value": 2.12
  },
  {
    "compound": "CC(C)[C@@H](C(=O)O)n1cc(-c2ccccn2)nn1",
    "measurement.name": "composite z-score",
    "endpoint.value": -0.0369
  }
]
